- System: NCI-H226 lung
- assay-text: NCI tumour cell line growth inhibition, 48 h; in the data active means GI50 below about 0.43 µM; inactive means the rest
Classes used: Yes for active, No for inactive

CCc1cccc(CC)c1NC(=O)c1ccn2c1CCc1cnc(Nc3ccc(N4CCN(C)CC4)cc3OC)nc1-2 : No
CCNC(=O)c1ccc2c(c1)nc(-c1ccc(Cl)cc1)n2-c1cc(C(C)(C)C)[nH]n1 : No
COC(=O)c1cc(NC(=O)CN(CCN(CC(=O)O)CC(=O)Nc2ccc(O)c(C(=O)OC)c2)CC(=O)O)ccc1O : No
CN1CCN(CCCN2c3ccccc3Sc3ccc(C(F)(F)F)cc32)CC1 : No
Cc1csc(-c2ccc3c(c2)COC3(CCCN(C)C)c2ccc(F)cc2)c1 (centres undefined) : No
C/C=C1\C[C@@H]2C(OC)Nc3cc(O)c(OC)cc3C(=O)N2C1 (some centres undefined) : Yes
Cc1nc2sc(C(=O)Nc3cccc(Cl)c3C)c(N)c2cc1C(=O)c1ccccc1 : No
COc1cc(C(=O)Nc2cc(O)c(C/C=C(\C)CCC=C(C)C)c(O)c2)cc2c1O[C@]1(C)CC[C@@H](O)C(C)(C)[C@H]1C2 : No
Cc1cccc2c1NC(=O)C2(c1ccc(O)cc1)c1ccc(O)cc1 : No
